Exercise: state measured log10 MIC for each of the compounds provided.
- Test system: Pseudomonas aeruginosa
- assay_procedure: Antibacterial activity against Pseudomonas aeruginosa ATCC 10145 assessed as growth inhibition after 24 hrs by dilution tube method
- Format: functional
- test_context: ATCC 10145, 24 h
Values reflect log10 of reported MIC (µg/mL).

# mol, outcome_measure, assay_result
data = [
    ("Cc1ccc(C[N+](C)(C)CCCCCOc2c(Br)cc(Br)cc2Br)o1.[Br-]", "log10 MIC", 0.70),
    ("Cc1cc(OCCCC[N+](C)(C)Cc2ccco2)c(C(C)C)cc1Cl.[Br-]", "log10 MIC", 0.88),
    ("C[N+](C)(CCCCOc1c(Br)cc(Br)cc1Br)Cc1ccc([N+](=O)[O-])o1.[Br-]", "log10 MIC", 0.90),
]

State the recorded log10 MIC for every item in the following list.
1. Cc1cc(OCCCCCCCCCCCCCC[N+](C)(C)Cc2ccc(Br)o2)c(C(C)C)cc1Cl.Cc1ccc(S(=O)(=O)[O-])cc1
2. C[N+](C)(CCCCCCCCOc1c(Br)cc(Br)cc1Br)Cc1ccc(Br)o1.[Br-]
3. Cc1ccc(C[N+](C)(C)CCOc2c(Br)cc(Br)cc2Br)o1.[Br-]
4. C[N+](C)(CCCCCCCCOc1c(Br)cc(Br)cc1Br)Cc1ccc([N+](=O)[O-])o1.[Br-]
5. C[N+](C)(CCCCCCOc1c(Br)cc(Br)cc1Br)Cc1ccc(Br)o1.[Br-]

2.30
0.30
1.40
0.30
0.18

State the recorded log10 MIC for every item in the following list.
1. C[N+](C)(CCCCOc1ccccc1Cl)Cc1ccc(Br)o1.[Br-]
2. Cc1cc(OCCCC[N+](C)(C)Cc2ccc(Br)o2)c(C(C)C)cc1Cl.[Br-]
3. C[N+](C)(CCCCCOc1c(Br)cc(Br)cc1Br)Cc1ccc(Br)o1.[Br-]
4. C[N+](C)(CCCCCOc1ccccc1Cl)Cc1ccc(Br)o1.[Br-]
5. Cc1cc(OCCC[N+](C)(C)Cc2ccc(Br)o2)c(C(C)C)cc1Cl.[Br-]
6. C[N+](C)(CCOc1c(Br)cc(Br)cc1Br)Cc1ccc(Br)o1.[Br-]

2.00
0.40
0.30
1.70
0.60
1.40

State the recorded log10 MIC for every item in the following list.
1. C[N+](C)(CCCCCCCCCCCCOc1c(Br)cc(Br)cc1Br)Cc1ccc([N+](=O)[O-])o1.[Br-]
2. Cc1cc(OCCCCCCCC[N+](C)(C)Cc2ccc([N+](=O)[O-])o2)c(C(C)C)cc1Cl.[Br-]
3. O=C1CN(/N=C/c2ccc([N+](=O)[O-])o2)C(=O)N1
4. Cc1cc(OCCCCC[N+](C)(C)Cc2ccc(Br)o2)c(C(C)C)cc1Cl.[Br-]

1: 1.70; 2: 0.00; 3: 0.40; 4: 0.40

====

- System: Staphylococcus aureus
- assay_procedure: Antibacterial activity against Staphylococcus aureus ATCC 6538 assessed as growth inhibition after 24 hrs by dilution tube method
- Type: functional
- test_context: ATCC 6538, 24 h
Recorded MIC determines the label; the label ranges are low interval = under 10 µg/mL, middle interval = from 10 µg/mL up to 50 µg/mL, high interval = 50 µg/mL and over

Recorded results for 5 compounds are shown here.
# mol, qualitative_label
data = [
    ("Cc1cc(OCC[N+](C)(C)Cc2ccc([N+](=O)[O-])o2)c(C(C)C)cc1Cl.Cc1ccc(S(=O)(=O)[O-])cc1", "high interval"),
    ("O=C1CN(/N=C/c2ccc([N+](=O)[O-])o2)C(=O)N1", "middle interval"),
    ("Cc1ccc(C[N+](C)(C)CCCCCOc2c(Br)cc(Br)cc2Br)o1.[Br-]", "low interval"),
    ("C[N+](C)(CCOc1c(Br)cc(Br)cc1Br)Cc1ccc(Br)o1.[Br-]", "middle interval"),
    ("Cc1cc(OCCCCCCCCCC[N+](C)(C)Cc2ccc(Br)o2)c(C(C)C)cc1Cl.[Br-]", "middle interval"),
]

Which category fits this record: Cc1cc(OCCCC[N+](C)(C)Cc2ccc(Br)o2)c(C(C)C)cc1Cl.[Br-]
low interval

====

- System: Cryptococcus neoformans
- assay_procedure: Antifungal activity against Cryptococcus neoformans 103 assessed as growth inhibition by agar dilution method
- Type: functional
outcome_measure: log10(MIC) (log10 of the value in µg/mL)
Values reflect log10 of reported MIC (µg/mL).

State the recorded log10(MIC) for every item in the following list.
1. Cc1cc(OCC[N+](C)(C)Cc2ccc([N+](=O)[O-])o2)c(C(C)C)cc1Cl.Cc1ccc(S(=O)(=O)[O-])cc1
2. C[N+](C)(CCCOc1c(Br)cc(Br)cc1Br)Cc1ccc([N+](=O)[O-])o1.[Br-]
3. C[N+](C)(CCCCCCCCOc1c(Br)cc(Br)cc1Br)Cc1ccc(Br)o1.[Br-]
4. Cc1cc(OCCC[N+](C)(C)Cc2ccc(Br)o2)c(C(C)C)cc1Cl.[Br-]

2.00
2.30
0.60
1.70

====

- System: Cryptococcus neoformans
- assay_procedure: Antifungal activity against Cryptococcus neoformans 103 assessed as growth inhibition by agar dilution method
- Format: functional
outcome_measure: MIC (µg/mL)
One number for each entry, in µg/mL.

Use the examples below as a reference point.
# mol, MIC [µg/mL]
rows = [
    ("Cc1ccc(C[N+](C)(C)CCOc2c(Br)cc(Br)cc2Br)o1.[Br-]", 50),
    ("Cc1cc(OCCCCC[N+](C)(C)Cc2ccc([N+](=O)[O-])o2)c(C(C)C)cc1Cl.[Br-]", 25),
    ("C[N+](C)(CCCCCCCCCCOc1c(Br)cc(Br)cc1Br)Cc1ccc([N+](=O)[O-])o1.[Br-]", 4),
    ("Cc1cc(OCCCC[N+](C)(C)Cc2ccc(Br)o2)c(C(C)C)cc1Cl.[Br-]", 25),
    ("Cc1ccc(C[N+](C)(C)CCCCCCOc2c(Br)cc(Br)cc2Br)o1.[Br-]", 10),
]

State the recorded MIC for every item in the following list.
1. Cc1cc(OCCCCCCCCCCCC[N+](C)(C)Cc2ccc([N+](=O)[O-])o2)c(C(C)C)cc1Cl.Cc1ccc(S(=O)(=O)[O-])cc1
2. C[N+](C)(CCCOc1c(Br)cc(Br)cc1Br)Cc1ccc(Br)o1.[Br-]

1: 100; 2: 50

====

- Tested on: Pseudomonas aeruginosa
- assay_procedure: Antibacterial activity against Pseudomonas aeruginosa ATCC 10145 assessed as growth inhibition after 24 hrs by dilution tube method
- Format: functional
- test_context: ATCC 10145, 24 h
Exercise: state measured MIC for each of the compounds provided.
# output: numeric value plus its unit

# mol, outcome_measure, assay_result
records = [
    ("Cc1cc(OCC[N+](C)(C)Cc2ccc([N+](=O)[O-])o2)c(C(C)C)cc1Cl.Cc1ccc(S(=O)(=O)[O-])cc1", "MIC", "25 µg/mL"),
    ("C[N+](C)(CCCCOc1ccc(Cl)cc1)Cc1ccc([N+](=O)[O-])o1.[Br-]", "MIC", "100 µg/mL"),
    ("C[N+](C)(CCCCCCCOc1c(Br)cc(Br)cc1Br)Cc1ccc([N+](=O)[O-])o1.[Br-]", "MIC", "3 µg/mL"),
    ("C[N+](C)(CCCOc1c(Br)cc(Br)cc1Br)Cc1ccc(Br)o1.[Br-]", "MIC", "4 µg/mL"),
    ("Cc1cc(OCCCCCCCCCCCC[N+](C)(C)Cc2ccc(Br)o2)c(C(C)C)cc1Cl.Cc1ccc(S(=O)(=O)[O-])cc1", "MIC", "50 µg/mL"),
    ("C[N+](C)(CCCCCCCOc1c(Br)cc(Br)cc1Br)Cc1ccc(Br)o1.[Br-]", "MIC", "2 µg/mL"),
]

State the recorded MIC for every item in the following list.
1. C[N+](C)(CCCCCCCCCCCCCCOc1c(Br)cc(Br)cc1Br)Cc1ccc(Br)o1.Cc1ccc(S(=O)(=O)[O-])cc1
2. C[N+](C)(CCOc1ccc(Cl)cc1Cl)Cc1ccc(Br)o1.[Br-]

50 µg/mL
50 µg/mL

====

Exercise: state measured MIC for each of the compounds provided.
- System: Staphylococcus aureus
- assay_procedure: Antibacterial activity against Staphylococcus aureus ATCC 6538 assessed as growth inhibition after 24 hrs by dilution tube method
- Format: functional
- test_context: ATCC 6538, 24 h
Numbers only, in µg/mL.

# mol, measure_unit, MIC
measured = [
    ("C[N+](C)(CCCCOc1c(Br)cc(Br)cc1Br)Cc1ccc([N+](=O)[O-])o1.[Br-]", "µg/mL", 25),
    ("Cc1ccc(C[N+](C)(C)CCCCOc2cc(C)c(Cl)cc2C(C)C)o1.[Br-]", "µg/mL", 25),
    ("C[N+](C)(CCOc1ccc(Cl)cc1Cl)Cc1ccc(Br)o1.[Br-]", "µg/mL", 100),
    ("Cc1cc(OCCCCCCCCCCCC[N+](C)(C)Cc2ccc([N+](=O)[O-])o2)c(C(C)C)cc1Cl.Cc1ccc(S(=O)(=O)[O-])cc1", "µg/mL", 200),
    ("Cc1cc(OCCCCC[N+](C)(C)Cc2ccc(Br)o2)c(C(C)C)cc1Cl.[Br-]", "µg/mL", 2.5),
    ("C[N+](C)(CCCCCOc1c(Br)cc(Br)cc1Br)Cc1ccc([N+](=O)[O-])o1.[Br-]", "µg/mL", 25),
    ("Cc1cc(OCCCCCCC[N+](C)(C)Cc2ccc([N+](=O)[O-])o2)c(C(C)C)cc1Cl.[Br-]", "µg/mL", 4),
    ("Cc1cc(OCCCCCCCC[N+](C)(C)Cc2ccc([N+](=O)[O-])o2)c(C(C)C)cc1Cl.[Br-]", "µg/mL", 2),
]

State the recorded MIC for every item in the following list.
1. C[N+](C)(CCCCCCOc1c(Br)cc(Br)cc1Br)Cc1ccco1.[Br-]
2. Cc1cc(OCCCCCCCC[N+](C)(C)Cc2ccc(Br)o2)c(C(C)C)cc1Cl.Cc1ccc(S(=O)(=O)[O-])cc1

1: 25; 2: 100

State the recorded MIC for every item in the following list.
1. Cc1cc(OCCCC[N+](C)(C)Cc2ccco2)c(C(C)C)cc1Cl.[Br-]
2. C[N+](C)(CCCCOc1ccccc1Cl)Cc1ccc(Br)o1.[Br-]

1: 25; 2: 100
